tested on: MERTK; details: concentration: 1 μM, replicates: in singlicate; n = 1;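 further: KINOMEscan kinase panel screen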
quantity: %Inh (%)
// note: answer is a bare numeric in %

The following molecules have reported results that may help.
NS(=O)(=O)c1cccc(N/C=C2\C(=O)Nc3ccc(S(=O)(=O)Cc4c(Cl)cccc4Cl)cc32)c1	0
COc1cccc(CNC(=O)NC2CCN(c3ccnc(Nc4ccc(F)cc4)n3)C2)c1 (stereo not shown)	26
CNC(=O)c1ccc(C)c(-n2c(C)cc(OCc3ccc(F)cc3F)c(Br)c2=O)c1	0

Now turn to the next molecule.
Return reported %Inh; argument: COc1ccc(Nc2nccc(N3CCC(NC(=O)C(C)c4ccc(Cl)cc4)C3)n2)cc1 (stereo not shown)
33
